test system: cyclo-oxygenase; assay: In vitro cyclo-oxygenase activity: malondialdehyde production in guinea pig lung homogenate incubated with arachidonic acid and cofactors; format: biochemical
recorded metric: CO (% of inhibition at 10 µM)
Output should be the measured figure followed by the unit it is expressed in.

Some molecules with recorded CO (% of inhibition at 10 µM):
COc1ccc(O)c(C(C)C#Cc2ccccc2)c1 (centres unmarked)
23%
COc1ccc(O)c(CC#Cc2ccccc2)c1
50%
NC1=NN(c2cccc(C(F)(F)F)c2)CC1 [BW 755 c, reference compound]
30%
CCCCCCC#CCc1cc(OC)ccc1O
52%

# input for lookup
Query :: Name the reported CO (% of inhibition at 10 µM) value associated with the molecule Oc1cccc(CC#Cc2ccccc2)c1O
Result :: 26%
